# system-under-test: human IL12Rβ1 naturally expressed on cells (Kit225 cells, human T-cells, human blood cells) (human, UniProt P42701 24-662)
# protocol-details: cell-based or functional assay
Recorded IL12/IL18 dependent IFNγ production In human blood cells (IC50, pM) by entry
measured-parameter: IL12/IL18 dependent IFNγ production In human blood cells (IC50, pM)

1) mAb10 (MOR11880 with IgG1 LALA Fc variant) (antibody, V domains shown, Human IgG1 L234A L235A (LALA), expressed in HKB11 cells) VH: QVQLVQSGAEVKKPGASVKVSCKASGYTFTGYYMHWVRQAPGQGLEWMGMIGPQHGEAIYAQKFQGRVTMTRDTSISTAYMELSRLRSDDTAVYYCARESTDSDESPFDYWGQGTLVTVSS VL: SYELTQPLSVSVALGQTARITCSGDNIRSYYVSWYQQKPGQAPVLVIYDDSDRPSGIPERFSGSNSGNTATLTISRAQAGDEADYYCQSYGSHSNFVVFGGGTKLTVLG : 42
2) mAb7 (MOR11879 with IgG1 LALA Fc variant) (antibody, V domains shown, Human IgG1 L234A L235A (LALA), expressed in HKB11 cells) VH: QVQLVQSGAEVKKPGASVKVSCKASGYTFTGYYMHWVRQAPGQGLEWMGMIGPQHGEAIYAQKFQGRVTMTRDTSISTAYMELSRLRSEDTAVYYCARESTDSDESPFDYWGQGTLVTVSS VL: DIELTQPPSVSVSPGQTASITCSGDNIRSYYVSWYQQKPGQAPVLVIYDDSDRPSGIPERFSGSNSGNTATLTISGTQAEDEADYYCQSYGSHSNFVVFGGGTKLTVLG : 24
3) mAb1 (MOR11873 with IgG1 LALA Fc variant) (antibody, V domains shown, Human IgG1 L234A L235A (LALA), expressed in HKB11 cells) VH: QVQLVESGGGVVQPGRSLRLSCAASGFTFTSYGMSWVRQAPGKGLEWVAGISYSGSDTEYADSVKGRFTISRDNSKNTLYLQMNSLRAEDTAVYYCARSPDYIIDYGFDYWGRGTLVTVSS VL: AIQMTQSPSSLSASVGDRVTITCRASQGISSDLAWYQQKPGKAPKLLIYDASSLQSGVPSRFSGSGSGTDFTLTISSLQPEDFATYYCQQYWIYPFTFGQGTKVEIKR : 28
4) mAb4 (MOR11878 with IgG1 LALA Fc variant) (antibody, V domains shown, Human IgG1 L234A L235A (LALA), expressed in HKB11 cells) VH: QVQLVESGGGVVQPGRSLRLSCAASGFTFTSYGMSWVRQAPGKGLEWVAGISYDASDTEYADSVKGRFTISRDNSKNTLYLQMNSLRAEDTAVYYCARSPDYIIDYGFDYWGRGTLVTVSS VL: AIQMTQSPSSLSASVGDRVTITCRASQGISSDLAWYQQKPGKAPKLLIYDASSLQSGVPSRFSGSGSGTDFTLTISSLQPEDFATYYCQQYWWYPFTFGQGTKVEIKR : 77
